# Target system: Glucose transporter (Leishmania mexicana)
# Protocol details: ST_JUDE_LEISH: Cytotoxicity at 2uM final concentration against transgenic Leishmania Mexicana promastigotes LmGT2 that are glucose transport deficient and complemented with the L. Mexicana glucose transporter 2. Activity is measured by DNA content using SYBR green in vitro
# Format: functional
Attribute measured: inhibition (%)

>>> df
                                   compound  units_of_measure  measured_result
0   CN(C)CCNc1cc(-c2ccc3ccccc3c2)nc2ccccc12                 %            -0.48
1  CCOc1ccc(C2CCN(CCCCNC(=O)c3ccc(NC(=O)c4ccc(Cl)cc4)cc3)CC2)c(CC)c1                 %            -0.33
2  COc1ccc(CN2CCCC(C(=O)c3ccc(C(F)(F)F)cc3)C2)c(O)c1 (centres undefined)                 %             3.56
3  Nc1nc(-c2ccccn2)nc(-n2nc(-c3cccc(C(F)(F)F)c3)cc2N)n1                 %             1.29
4  CC(C)[C@H](NC(=O)c1c(F)cccc1F)C(=O)Nc1ccc(Cc2nc3ccccc3s2)cc1                 %             4.17
5  Cc1nnsc1C(=O)Nc1cccc(-c2cccc(-c3nc4cc(F)ccc4[nH]3)c2)c1                 %            -2.12
6  COc1ccc(Nc2nc(NN=Cc3cc(Br)c(O)cc3O)nc(Nc3ccc([N+](=O)[O-])cc3)n2)cc1                 %             1.09
7  Cc1ccc2[nH]c3c(c2c1)CC(C(=O)NCCC(C)C)NC31CCN(Cc2ccccc2)CC1 (centres undefined)                 %             0.79
8  Cc1ccc2nc(C)cc(N/N=C/c3ccc([N+](=O)[O-])cc3)c2c1                 %              104
